B1: Arabidopsis thaliana cryptochrome 2 (CRY2, UniProt Q96524), residues 1-535 fused after the Gal4 DNA-binding domain (Gal4BD-CRY2(535)); mutagenized window 321-412, Q96524 (parent)
chain: MKMDKKTIVWFRRDLRIEDNPALAAAAHEGSVFPVFIWCPEEEGQFYPGRASRWWMKQSLAHLSQSLKALGSDLTLIKTHNTISAILDCIRVTGATKVVFNHLYDPVSLVRDHTVKEKLVERGISVQSYNGDLLYEPWEIYCEKGKPFTSFNSYWKKCLDMSIESVMLPPPWRLMPITAAAEAIWACSIEELGLENEAEKPSNALLTRAWSPGWSNADKLLNEFIEKQLIDYAKNSKKVVGNSTSLLSPYLHFGEISVRHVFQCARMKQIIWARDKNSEGEESADLFLRGIGLREYSRYICFNFPFTHEQSLLSHLRFFPWDADVDKFKAWRQGRTGYPLVDAGMRELWATGWMHNRIRVIVSSFAVKFLLLPWKWGMKYFWDTLLDADLECDILGWQYISGSIPDGHELDRLDNPALQGAKYDPEGEYIRQWLPELARLPTEWIHHPWDAPLTVLKASGVELGTNYAKPIVDIDTARELLAKAISRTREAQIMIGAAPDEIVADSFEALGANTIKEPGLCPSVSSNDQQVPSAV

Variants of: B1
Measurement Protocol: yeast two-hybrid growth selection (MaV203; Gal4BD-CRY2(1-535) library x Gal4AD-CIB1; URA3 reporter on SC -Trp/-Leu/-Ura) in the dark, deep sequencing before and after selection, Enrich2 scoring; three independent screens (one at 48 h, two …)
Conditions: with CIB1 (CRYPTOCHROME-INTERACTING BASIC-HELIX-LOOP-HELIX 1), dark (no blue light), screens 1, 3 and 4, Svar > 0 = enriched under dark selection for CRY2-CIB1 two-hybrid growth (URA3 reporter), < 0 = depleted, relative to wild type (whose scores are 0). 'The Enrich2 software calculates, parent: 0, not an affinity, scale: Enrich2 score, numbering: uniprot, sequence starts at 1
Would you kindly list enrichment for each of these variants?
Numbers only.

Some variants with known enrichment results, for comparison:
L390V; 0.548
V341E; -1.64
E409K; -0.366
L395R; -0.209

Each variant below has a recorded value; state its enrichment.
1. Y338S
2. E347A
3. K379M
4. W382G
5. M378V
6. L395P
7. P405T
8. R359S

stdout:
[-0.758, 0.457, -1.02, 0.784, 0.308, -0.953, 0.224, -0.603]

Each variant below has a recorded value; state its enrichment.
1. G396R
2. F369C
3. Y380C

stdout:
[2.19, 0.578, -0.0376]

Each variant below has a recorded value; state its enrichment.
1. W374L
2. H408L
3. L348P
4. I404N
5. M354L

stdout:
1: 1.65; 2: 1.61; 3: -1.54; 4: 1.51; 5: 0.399

Values were extracted from paper PMC12212125.
